- tested-on: UniProtKB P18089
- Sequence (P18089 whole entry): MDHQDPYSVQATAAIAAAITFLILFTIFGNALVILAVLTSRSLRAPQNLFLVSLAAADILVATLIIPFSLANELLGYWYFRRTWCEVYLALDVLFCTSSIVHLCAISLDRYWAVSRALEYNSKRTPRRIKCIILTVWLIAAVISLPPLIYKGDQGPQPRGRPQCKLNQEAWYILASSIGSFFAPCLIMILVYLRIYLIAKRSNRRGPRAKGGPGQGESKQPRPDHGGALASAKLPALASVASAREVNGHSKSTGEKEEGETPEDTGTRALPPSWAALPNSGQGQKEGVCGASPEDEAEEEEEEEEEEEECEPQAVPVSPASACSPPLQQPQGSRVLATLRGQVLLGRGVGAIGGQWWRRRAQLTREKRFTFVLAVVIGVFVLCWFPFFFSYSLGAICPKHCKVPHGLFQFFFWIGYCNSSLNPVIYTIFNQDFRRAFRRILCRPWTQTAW

| molecule | AC50 |
| --- | --- |
| CO/N=C(\C(=O)N[C@@H]1C(=O)N2C(C(=O)O)=C(COC(N)=O)CS[C@H]12)c1ccco1 | > 30 µM |
| CN(C)c1cc(CNCC(C)(C)C)c(O)c2c1C[C@H]1C[C@H]3[C@H](N(C)C)C(O)=C(C(N)=O)C(=O)[C@@]3(O)C(O)=C1C2=O | 30 µM |
| CCOc1cc(CC(=O)N[C@@H](CC(C)C)c2ccccc2N2CCCCC2)ccc1C(=O)O [REPAGLINIDE] | > 30 µM |
| CCC(=O)OCC(=O)[C@@]1(OC(=O)CC)[C@@H](C)C[C@H]2[C@@H]3CCC4=CC(=O)C=C[C@]4(C)[C@@]3(F)[C@@H](O)C[C@@]21C [BETAMETHASONE DIPROPIONATE] | > 30 µM |
| CC1(C)O[C@@H]2[C@@H](CO[C@@]3(COS(N)(=O)=O)OC(C)(C)O[C@@H]23)O1 [TOPIRAMATE] | > 10 µM |
| c1ccc2c(CC3=NCCN3)cccc2c1 | 0.19 µM |
| N=C(N)NCCCCCCC(=O)NC(O)C(=O)NCCCCNCCCN (configuration not stated) | > 30 µM |
| CO[C@@]1(NC(=O)Cc2cccs2)C(=O)N2C(C(=O)O)=C(COC(N)=O)CS[C@@H]21 | > 30 µM |
| CC(=O)O[C@H]1C[C@@H]2CC[C@@H]3[C@H](CC[C@@]4(C)[C@H]3C[C@H]([N+]3(C)CCCCC3)[C@@H]4OC(C)=O)[C@@]2(C)C[C@@H]1[N+]1(C)CCCCC1 | > 10 µM |
| O=C1Nc2ccc(Cl)cc2C(c2ccccc2)=NC1O (configuration not stated) | > 10 µM |
| NS(=O)(=O)c1cc(C(=O)O)cc(N2CCCC2)c1Oc1ccccc1 [PIRETANIDE] | > 30 µM |
| CC#CCn1c(N2CCC[C@@H](N)C2)nc2c1c(=O)n(Cc1nc(C)c3ccccc3n1)c(=O)n2C | > 10 µM |

---

// each record: one item and its AC50 for Gamma-aminobutyric acid receptor subunit alpha-1 (Rattus norvegicus)

| compound | AC50 |
| --- | --- |
| CN(c1nccc(=O)[nH]1)C1CCN(c2nc3ccccc3n2Cc2ccc(F)cc2)CC1 | > 30 µM |
| COCCCOc1ccnc(C[S+]([O-])c2nc3ccccc3[nH]2)c1C (centres undefined) | > 10 µM |
| CC[C@@H](CO)NC(=O)[C@@H]1C=C2c3cccc4[nH]cc(c34)C[C@H]2N(C)C1 | > 30 µM |
| CCCOC(C(=O)OC1CCN(C)CC1)(c1ccccc1)c1ccccc1 | > 30 µM |

---

- tested-on: Muscarinic acetylcholine receptor M1 (Homo sapiens, UniProt P11229)
- Sequence (P11229 whole entry): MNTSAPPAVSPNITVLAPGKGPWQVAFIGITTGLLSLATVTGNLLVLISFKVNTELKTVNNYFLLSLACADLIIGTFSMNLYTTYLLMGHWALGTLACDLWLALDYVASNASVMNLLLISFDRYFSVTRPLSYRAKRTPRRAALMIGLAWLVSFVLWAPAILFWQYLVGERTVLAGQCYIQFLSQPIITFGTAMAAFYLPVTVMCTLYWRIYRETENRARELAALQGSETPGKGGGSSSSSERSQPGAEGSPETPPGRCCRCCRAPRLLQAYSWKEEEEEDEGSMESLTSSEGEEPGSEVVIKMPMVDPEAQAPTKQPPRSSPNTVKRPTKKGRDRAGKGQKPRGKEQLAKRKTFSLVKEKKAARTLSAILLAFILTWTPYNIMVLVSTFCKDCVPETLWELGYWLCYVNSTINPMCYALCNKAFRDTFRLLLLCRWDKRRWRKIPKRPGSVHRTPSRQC
- Type: functional, cell-based

| compound | AC50 |
| --- | --- |
| CC(C1=C(CCN(C)C)Cc2ccccc21)c1ccccn1 (stereo unspecified) | 7.57 µM |
| N[C@@H](CSSC[C@H](N)C(=O)O)C(=O)O [CYSTINE] | > 30 µM |
| c1ccc2c(CC3=NCCN3)cccc2c1 [NAPHAZOLINE] | > 30 µM |
| COC(=O)C1=C(C)NC(C)=C(C(=O)O[C@H]2CCN(Cc3ccccc3)C2)[C@H]1c1cccc([N+](=O)[O-])c1 [BARNIDIPINE] | 4.07 µM |
| CCN(CC)CCOC(=O)C(Cc1cccc2ccccc12)CC1CCCO1 (stereo unspecified) [NAFRONYL] | 24.2 µM |
| C[C@H](N)C(=O)O [ALANINE] | > 30 µM |
| Nc1nc(N)nc(Nc2ccc([As]3SCC(CO)S3)cc2)n1 (stereo unspecified) [MELARSOPROL] | 22.5 µM |
| Cc1nnc(SCC2=C(C(=O)O)N3C(=O)[C@@H](NC(=O)Cn4cc(Cl)c(=O)c(Cl)c4)[C@H]3SC2)s1 [CEFAZEDONE] | > 30 µM |
| CC(C)(C)C(=O)NCCCC(=O)O [PIVAGABINE] | > 30 µM |
| CC(=O)OC(C)OC(=O)C(C)c1ccc(-c2ccccc2)c(F)c1 (stereo unspecified) | > 30 µM |
| COc1nccnc1NS(=O)(=O)c1ccc(N)cc1 | > 30 µM |
| CCCCCCCCCCCCCCCC(=O)OC/C=C(C)/C=C/C=C(C)/C=C/C1=C(C)CCCC1(C)C [VITAMIN A PALMITATE] | > 30 µM |
| CCCCCCCCCCCCCCCCCC(=O)NCCCC[C@H](NC(=O)CC[C@@H](NC(=O)[C@H](C)NC(=O)[C@@H](C)O[C@H]1[C@H](O)[C@@H](CO)OC(O)[C@@H]1NC(C)=O)C(N)=O)C(=O)O (stereo partly specified) [ROMURTIDE] | 6.71 µM |
| CNC[C@H](O)c1cccc(O)c1 [PHENYLEPHRINE] | > 30 µM |
| O=C(O)CCc1nc2ccccc2[nH]1 [PROCODAZOLE] | 29.9 µM |
| C=C1c2c(Cl)ccc(O)c2C(=O)C2=C(O)[C@]3(O)C(=O)C(C(N)=O)=C(O)[C@@H](N(C)C)[C@@H]3[C@@H](O)[C@H]12 [MECLOCYCLINE] | > 30 µM |
| COCCOc1cnc(NS(=O)(=O)c2ccccc2)nc1 [GLYMIDINE] | > 30 µM |
| C[C@@H](O)[C@H]1C(=O)N2C(C(=O)O)=C([C@H]3CCCO3)S[C@H]12 [FAROPENEM] | > 30 µM |
| CC(=O)O[C@H]1C[C@H](O[C@H]2[C@@H](O)C[C@H](O[C@H]3[C@@H](O)C[C@H](O[C@H]4CC[C@@]5(C)[C@H](CC[C@@H]6[C@@H]5C[C@@H](O)[C@]5(C)[C@@H](C7=CC(=O)OC7)CC[C@]65O)C4)O[C@@H]3C)O[C@@H]2C)O[C@H](C)[C@H]1O[C@@H]1O[C@H](CO)[C@@H](O)[C@H](O)[C@H]1O [LANATOSIDE C] | > 30 µM |
| CNC(=O)C[C@@H](N)C(=O)N[C@@H](C(=O)N[C@@H]1C(=O)N2[C@@H]1SC(C)(C)[C@@H]2C(=O)O)c1ccc(O)cc1 [ASPOXICILLIN] | > 30 µM |
| c1cc(CN2CCCNCCNCCCNCC2)ccc1CN1CCCNCCNCCCNCC1 [PLERIXAFOR] | > 30 µM |
| CC(C)[N+](C)(CCOC(=O)C1c2ccccc2Oc2ccccc21)C(C)C [PROPANTHELINE] | 0.003 µM |
| C1CNCCN1 [PIPERAZINE] | > 30 µM |
| C[C@@H]1C[C@H]2[C@@H]3C[C@H](F)C4=CC(=O)C=C[C@]4(C)[C@@]3(Cl)[C@@H](O)C[C@]2(C)[C@H]1C(=O)COC(=O)C(C)(C)C [CLOCORTOLONE PIVALATE] | > 30 µM |
| C[C@@H](O)[C@H]1C(=O)N2C(C(=O)[O-])=C(SC3Cn4cnc[n+]4C3)[C@H](C)[C@H]12 (stereo partly specified) [BIAPENEM] | > 30 µM |
| CN(C)CCC(c1ccccc1)c1ccccn1 (stereo unspecified) [PHENIRAMINE] | > 30 µM |

---

Reported AC50 for target or system Gamma-aminobutyric acid receptor subunit alpha-1 (Rattus norvegicus, UniProt P62813), by entry. Also: assay procedure not described here.

| compound | AC50 |
| --- | --- |
| CC(C)C[C@H](CN)CC(=O)O [PREGABALIN] | > 30 µM |
| CC(=O)Nc1c(I)c(C(=O)N[C@H]2C(O)O[C@H](CO)[C@@H](O)[C@@H]2O)c(I)c(N(C)C(C)=O)c1I (stereo partly drawn) [METRIZAMIDE] | > 30 µM |
| CCCCC[C@H](O)/C=C/[C@H]1[C@H](O)CC(=O)[C@@H]1C/C=C\CCCC(=O)O [DINOPROSTONE] | > 30 µM |
| O=C(Nc1nc(-c2cc(Cl)cs2)c(N2CCN(C3CCCCC3)CC2)s1)c1cnc(N2CCC(C(=O)O)CC2)c(Cl)c1 [AVATROMBOPAG] | > 10 µM |
| OCCN1CCN(CC/C=C2/c3ccccc3Sc3ccc(Cl)cc32)CC1 [ZUCLOPENTHIXOL] | > 10 µM |
| O=C(O)c1cc(O)c2c3nc4ccccc4oc-3cc(=O)c2n1 [PIRENOXINE] | > 30 µM |
| NCCCC(O)(P(=O)(O)O)P(=O)(O)O [ALENDRONIC ACID] | > 10 µM |
| NS(=O)(=O)c1cc(C2(O)NC(=O)c3ccccc32)ccc1Cl (stereo not drawn) [CHLORTHALIDONE] | > 10 µM |
| CC(C)(C)NCC(O)c1cc(Cl)c(N)c(Cl)c1 (stereo not drawn) [CLENBUTEROL] | > 30 µM |
| CC(=O)S[C@@H]1CC2=CC(=O)CC[C@]2(C)[C@H]2CC[C@@]3(C)[C@@H](CC[C@@]34CCC(=O)O4)[C@H]12 [SPIRONOLACTONE] | > 10 µM |
| CC(=O)O[C@H]1C[C@@H]2CC[C@@H]3[C@H](CC[C@@]4(C)[C@H]3C[C@H]([N+]3(C)CCCCC3)[C@@H]4OC(C)=O)[C@@]2(C)C[C@@H]1[N+]1(C)CCCCC1 [PANCURONIUM] | > 10 µM |
| CCC(=O)OCC(=O)[C@@]1(OC(=O)CC)[C@@H](C)C[C@H]2[C@@H]3CCC4=CC(=O)C=C[C@]4(C)[C@@]3(F)[C@@H](O)C[C@@]21C [BETAMETHASONE DIPROPIONATE] | > 30 µM |
| CC(NCCc1ccc(O)cc1)C(O)c1ccc(O)cc1 (stereo not drawn) [RITODRINE] | > 30 µM |
| COc1ccc(C(CN(C)C)C2(O)CCCCC2)cc1 (stereo not drawn) [VENLAFAXINE] | > 10 µM |
| COc1ccc(/C=C/C(=O)Nc2ccccc2C(=O)O)cc1OC | > 30 µM |
| CC(C)=CCOc1ccc(/C=C/C(=O)c2ccc(OCC=C(C)C)cc2OCC(=O)O)cc1 [SOFALCONE] | > 30 µM |
| C=CC(N)CCC(=O)O (stereo not drawn) [VIGABATRIN] | > 10 µM |
| N#Cc1ccccc1-c1cc(-c2ccccn2)cn(-c2ccccc2)c1=O | > 30 µM |
| O=C1Nc2ccc(Cl)cc2C(c2ccccc2)=NC1O (stereo not drawn) [OXAZEPAM] | > 10 µM |
| Nc1nc(F)nc2c1ncn2[C@@H]1O[C@H](COP(=O)(O)O)[C@@H](O)[C@@H]1O [FLUDARABINE PHOSPHATE] | > 30 µM |
| Clc1ccc2c(c1)C(c1ccccc1)=NCc1nncn1-2 [ESTAZOLAM] | > 10 µM |
| COc1cc2c(Nc3ccc(Br)cc3F)ncnc2cc1OCC1CCN(C)CC1 [VANDETANIB] | > 30 µM |
| Nc1nc(O)c2ncn(COC(CO)CO)c2n1 [GANCICLOVIR] | > 30 µM |
